Biological target: UniProtKB P47747
Test: Agonist activity at histamine H2 receptor in guinea pig spontaneously beating right atrium assessed as positive chronotropic activity relative to histamine
Format: functional, tissue-based
Conditions: Cardiac atrium
Readout type: Activity (%)

N=C(NCCCc1c[nH]cn1)NC(=O)CCCc1ccccc1 : 1780
N=C(NCCCc1c[nH]cn1)NC(=O)C(c1ccccc1)c1ccccc1 : 95
N=C(NCCCc1c[nH]cn1)NC(=O)CC(c1ccc(Cl)cc1)c1ccc(Cl)cc1 : 320

a = N=C(NCCCc1c[nH]cn1)NC(=O)CC(c1ccc(F)c(F)c1)c1nccs1 (stereo not drawn)
b = CC(C(=O)NC(=N)NCCCc1c[nH]cn1)C1CCCCC1 (stereo not drawn)
Req: Decide: a or b , by lowest recorded Activity. Refer to your chosen item by its label in the answer.
Resp: b

A = Cc1[nH]cnc1CSCCNC(=N)NCCCc1c[nH]cn1
B = CC(CC(=O)NC(=N)NCCCc1c[nH]cn1)c1cccs1 (stereo not drawn)
Req: Response body: label of entry with the larger Activity; valid values A , B . Give the chosen item's label as your response.
Resp: A
(A: 5000%, B: 2630%)

P = N=C(NCCCc1c[nH]cn1)NC(=O)CC(c1ccccc1)c1ccc(F)c(F)c1 (stereo not drawn)
Q = Cc1[nH]cnc1CSCC(=O)NC(=N)NCCCc1c[nH]cn1
R = N=C(NCCCc1c[nH]cn1)NC(=O)CC(c1ccc(F)c(F)c1)c1ncc[nH]1 (stereo not drawn)
S = CC(CC(=O)/N=C(\N)NCCCc1c[nH]cn1)c1ccccc1 (stereo not drawn)
T = N=C(NCCCc1c[nH]cn1)NC(=O)CC(c1ccc(Br)cc1)c1ccc(Br)cc1
Req: Given 5 molecules, produce a descending ranking by Activity. Present the labels in the sequence the task asks for.
Resp: S, Q, P, R, T

###

Target: Histamine H1 receptor (Homo sapiens) (UniProt P35367)
Sequence (P35367 whole entry): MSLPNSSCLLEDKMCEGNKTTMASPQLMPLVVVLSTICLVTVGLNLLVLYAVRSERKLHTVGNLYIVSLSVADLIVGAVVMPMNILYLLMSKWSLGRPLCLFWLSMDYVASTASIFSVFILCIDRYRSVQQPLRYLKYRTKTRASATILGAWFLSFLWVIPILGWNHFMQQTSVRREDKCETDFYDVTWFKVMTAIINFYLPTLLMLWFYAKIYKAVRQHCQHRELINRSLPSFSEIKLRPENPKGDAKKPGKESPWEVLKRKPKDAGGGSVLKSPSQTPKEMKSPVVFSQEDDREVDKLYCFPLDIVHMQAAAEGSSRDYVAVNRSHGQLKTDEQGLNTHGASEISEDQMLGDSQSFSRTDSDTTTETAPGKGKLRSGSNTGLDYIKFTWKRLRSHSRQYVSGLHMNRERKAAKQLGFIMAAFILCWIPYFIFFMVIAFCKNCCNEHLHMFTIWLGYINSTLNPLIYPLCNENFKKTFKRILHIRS
Assay: Activity at human recombinant histamine H1 receptor expressed in Sf9 cells coexpressing RGS4 by steady-state GTPase activity assay relative to histamine
Readout type: Activity (%)

CC(CC(=O)NC(=N)NCCCc1c[nH]cn1)c1cccs1 (centres undefined) : 1.8
N=C(NCCCc1c[nH]cn1)NC(=O)CC(c1ccccc1)c1nccs1 (centres undefined) : 1

I = CC(CC(=O)/N=C(\N)NCCCc1c[nH]cn1)c1ccccc1 (centres undefined)
II = N=C(NCCCc1c[nH]cn1)NC(=O)CC(c1ccccc1)c1ccccc1
Req: Lower Activity: I or II ? Pick one and reply with its label.
Resp: I

###

Molecular target: Histamine H1 receptor (Homo sapiens) (UniProt P35367)
Assay: Antagonist activity at histamine H1 receptor in human U373 MG cells assessed as inhibition of histamine-induced intracellular calcium level preincubated for 15 mins prior to histamine challenge
Format: functional, cell-based
Conditions: U-373MG ATCC
Readout type: Kb (µM)

Example cases with answers are listed next.
N=C(NCCCc1c[nH]cn1)NC(=O)CC(c1ccccc1)c1nccs1 (stereo not drawn) : 6.8
CC(C(=O)NC(=N)NCCCc1c[nH]cn1)C1CCCCC1 (stereo not drawn) : 8.8
CC(CC(=O)NC(=N)NCCCc1c[nH]cn1)c1ccccn1 (stereo not drawn) : 7.4
N=C(NCCCc1c[nH]cn1)NC(=O)CCCC1CCCCC1 : 1.1
CC(CC(=O)NC(=N)NCCCc1c[nH]cn1)c1cccs1 (stereo not drawn) : 2.1

I = N=C(NCCc1c[nH]cn1)NC(=O)CC(c1ccccc1)c1ccccc1
II = N=C(NCCCc1c[nH]cn1)NC(=O)CC(c1ccccc1)c1ccc(F)c(F)c1 (stereo not drawn)
III = CC(CC(=O)NC(=N)NCCCc1c[nH]cn1)C1CCCCC1 (stereo not drawn)
IV = N=C(NCCCc1c[nH]cn1)NC(=O)C(c1ccccc1)c1ccccc1
V = N=C(NCCCc1c[nH]cn1)NC(=O)C1CCCCC1
Req: Descending sort on Kb required. Please write the labels in the order that was asked for.
Resp: I, V, IV, II, III
(I: 8.7 µM, V: 6 µM, IV: 4 µM, II: 1.2 µM, III: 0.14 µM)

1 = N=C(NCCCc1c[nH]cn1)NC(=O)CCCc1ccccc1
2 = CC(CC(=O)NC(=N)NCCCc1c[nH]cn1)c1nccs1 (stereo not drawn)
Req: Hi! Which is lower in terms of Kb, the first one 1 or the second one 2 ? Respond with the label that goes with your answer.
Resp: 1

a = CC(C(=O)NC(=N)NCCCc1c[nH]cn1)c1ccccc1 (stereo not drawn)
b = N=C(NCCCc1c[nH]cn1)NC(=O)CC(c1ccc(F)cc1)c1ccccn1 (stereo not drawn)
Req: Pick one: a or b . Which has the bigger Kb number? Bench note: the answer is the label of the chosen record.
Resp: a
(a: 8.8 µM, b: 5.2 µM)

###

Biological target: Histamine H2 receptor (Cavia porcellus)
Assay: Agonist activity at histamine H2 receptor in guinea pig spontaneously beating right atrium assessed as positive chronotropic activity
Assay type: functional, tissue-based, Cardiac atrium
pEC50: −log10 of the molar value.
Readout type: pEC50

NC(=NCCCc1cnc[nH]1)NC(=O)CC(c1ccccc1)c1nccs1 (stereo not drawn) : 7.42

I = N=C(NCCc1c[nH]cn1)NC(=O)CC(c1ccccc1)c1ccccc1
II = NC(=NCCCc1cnc[nH]1)NC(=O)C(c1ccccc1)c1ccccc1
III = CC(CC(=O)NC(=N)NCCCc1c[nH]cn1)c1ccccn1 (stereo not drawn)
IV = N=C(NCCCc1c[nH]cn1)NC(=O)CC(c1ccc(F)c(F)c1)c1nccn1Cc1ccccc1 (stereo not drawn)
V = NC(=NCCC(c1ccc(F)cc1)c1ccccn1)NCCCc1cnc[nH]1 (stereo not drawn)
Req: Provide the items ranked by increasing pEC50. Reply: labels, ordered per the request.
Resp: II, I, IV, III, V
(II: 5.98, I: 6.19, IV: 6.40, III: 7.42, V: 8.01)

###

Target: Histamine H2 receptor (Cavia porcellus) (UniProt P47747)
Sequence (P47747 whole entry, the tested form may be a part): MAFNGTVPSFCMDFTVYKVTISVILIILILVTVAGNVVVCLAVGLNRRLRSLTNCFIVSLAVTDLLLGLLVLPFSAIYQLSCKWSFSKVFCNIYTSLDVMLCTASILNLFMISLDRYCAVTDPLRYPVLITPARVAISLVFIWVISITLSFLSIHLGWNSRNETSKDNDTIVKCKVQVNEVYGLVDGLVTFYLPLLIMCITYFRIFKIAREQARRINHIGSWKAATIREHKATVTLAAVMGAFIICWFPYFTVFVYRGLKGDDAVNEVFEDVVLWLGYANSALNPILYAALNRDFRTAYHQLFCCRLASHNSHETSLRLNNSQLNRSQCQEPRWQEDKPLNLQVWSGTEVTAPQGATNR
Assay: Activity at guinea pig recombinant histamine H2 receptor-Gsalpha fusion protein expressed in Sf9 cells by steady-state GTPase activity assay relative to histamine
Readout type: Activity (%)

A selection of reference data follows.
CC(CC(=O)/N=C(\N)NCCCc1c[nH]cn1)c1ccccc1 (centres undefined) : 10000
CC(CC(=O)NC(=N)NCCCc1c[nH]cn1)c1cccs1 (centres undefined) : 5710

I = N=C(NCCCc1c[nH]cn1)NC(=O)CC(c1ccccc1)c1nccs1 (centres undefined)
II = N=C(NCCCc1c[nH]cn1)NC(=O)CC(c1ccccc1)c1ccccc1
Req: I or II : whose Activity is greater? Answer format: the label of the selected item.
Resp: II

###

Target: Histamine H2 receptor (Cavia porcellus)
Assay: Agonist activity at histamine H2 receptor in guinea pig spontaneously beating right atrium assessed as positive chronotropic activity relative to histamine
Type: functional, tissue-based
Conditions: Cardiac atrium
Readout type: Emax (%)

Cc1[nH]cnc1CSCCNC(=N)NCCCc1c[nH]cn1 : 100
N=C(NCCCc1c[nH]cn1)NC(=O)CC(c1ccccc1)c1ccc(F)cc1 (stereo not given) : 95
N=C(NCCCc1c[nH]cn1)NC(=O)CC(c1ccc(F)cc1)c1ccc(F)cc1 : 76
Cc1[nH]cnc1CSCC(=O)NC(=N)NCCCc1c[nH]cn1 : 101
N=C(NCCCc1c[nH]cn1)NC(=O)CC(c1ccccc1)c1nccs1 (stereo not given) : 100

###

Biological target: Histamine H2 receptor (Cavia porcellus)
Experiment: Agonist activity at histamine H2 receptor in guinea pig spontaneously beating right atrium assessed as positive chronotropic activity relative to histamine
Format: functional, tissue-based
Conditions: Cardiac atrium
Readout type: Emax (%)

Known Emax results, listed for orientation:
CC(CC(=O)NC(=N)NCCCc1c[nH]cn1)c1ccccn1 (stereo unspecified) : 98
N=C(NCCCc1c[nH]cn1)NC(=O)CC(c1ccc(F)c(F)c1)c1nccn1Cc1ccccc1 (stereo unspecified) : 54
N=C(NCCCc1c[nH]cn1)NC(=O)CC(c1ccc(F)c(F)c1)c1ncc[nH]1 (stereo unspecified) : 100
N=C(NCCCc1c[nH]cn1)NC(=O)CC(c1ccccc1)c1ccccn1 (stereo unspecified) : 97

I = N=C(NCCCc1c[nH]cn1)NC(=O)CCCc1ccccc1
II = N=C(NCCc1c[nH]cn1)NC(=O)CC(c1ccccc1)c1ccccc1
Req: When their Emax values are compared, which is larger, I or II ? Select an item and report its label.
Resp: I

###

Biological target: UniProtKB P31389
Sequence (P31389 whole entry): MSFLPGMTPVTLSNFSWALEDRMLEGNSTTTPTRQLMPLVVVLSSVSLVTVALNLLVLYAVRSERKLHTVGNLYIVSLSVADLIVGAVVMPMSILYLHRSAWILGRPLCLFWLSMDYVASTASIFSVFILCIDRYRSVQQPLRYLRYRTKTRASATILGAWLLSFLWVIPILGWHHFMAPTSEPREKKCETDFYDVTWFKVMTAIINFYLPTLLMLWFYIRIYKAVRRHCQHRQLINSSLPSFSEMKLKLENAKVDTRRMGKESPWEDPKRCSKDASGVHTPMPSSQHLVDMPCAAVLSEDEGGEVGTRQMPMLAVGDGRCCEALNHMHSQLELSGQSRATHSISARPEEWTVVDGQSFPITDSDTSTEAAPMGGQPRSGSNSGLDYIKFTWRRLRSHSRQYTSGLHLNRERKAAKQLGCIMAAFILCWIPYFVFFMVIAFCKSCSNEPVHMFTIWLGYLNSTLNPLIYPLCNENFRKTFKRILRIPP
Assay: Antagonist activity at histamine H1 receptor in guinea pig ileum assessed as inhibition of histamine-induced […]
Assay type: functional, tissue-based
Conditions: read-out: pA2 (converted)
Readout type: Kb (nM)

Record excerpt, results attached:
NC(=NCCCc1cnc[nH]1)NC(=O)Cc1ccccc1 : 575
N=C(NCCCc1c[nH]cn1)NC(=O)CCc1ccccc1 : 2140
N=C(NCCCc1c[nH]cn1)NC(=O)CCCc1ccccc1 : 1820
N=C(NCCCc1c[nH]cn1)NC(=O)CC(c1ccccc1)c1ccccn1 (stereo not given) : 11200
N=C(NCCCc1c[nH]cn1)NC(=O)CCCC1CCCCC1 : 741
N=C(NCCCc1c[nH]cn1)NC(=O)CC(c1ccc(F)c(F)c1)c1nccs1 (stereo not given) : 4680
CC(C(=O)NC(N)=NCCCc1cnc[nH]1)C1CCCCC1 (stereo not given) : 2340
NC(=NCCCc1cnc[nH]1)NC(=O)CCC1CCCCC1 : 6170
NC(=NCCCc1cnc[nH]1)NC(=O)CC(c1ccccc1)c1ccccc1 : 741
NC(=NCCCc1cnc[nH]1)NC(=O)C1CCCCC1 : 5130

a = CC(CC(=O)NC(N)=NCCCc1cnc[nH]1)C1CCCCC1 (stereo not given)
b = NC(=NCCCc1cnc[nH]1)NC(=O)CC(c1ccccc1)c1nccs1 (stereo not given)
c = CC(CC(=O)NC(N)=NCCCc1cnc[nH]1)c1ccccc1 (stereo not given)
d = N=C(NCCc1c[nH]cn1)NC(=O)CC(c1ccccc1)c1ccccc1
e = N=C(NCCCc1c[nH]cn1)NC(=O)CCCCc1ccccc1
Req: Rank order required: Kb, descending. // respond by listing labels in the order requested
Resp: d, b, a, c, e
(d: 9770 nM, b: 4680 nM, a: 2190 nM, c: 1350 nM, e: 562 nM)
